Assay: CellTiter-Glo luminescent readout of SW480 viability loss, NPC library primary (AID 1117343)
Details: CellTiter-Glo luminescence; at 20 µM (top of the series)

[
  {
    "Compound": "CCOC(=O)C1=C(O)c2ccccc2S(=O)(=O)N1C",
    "viability decrease (inhibition) (%)": 12
  },
  {
    "Compound": "Cc1ccc(S(=O)(=O)NC(=O)NC2CCCCCCC2)cc1",
    "viability decrease (inhibition) (%)": 36.4
  },
  {
    "Compound": "S=c1nc[nH]c2nc[nH]c12",
    "viability decrease (inhibition) (%)": 107
  },
  {
    "Compound": "CC(NC(CCc1ccccc1)C(=O)O)C(=O)N1C(=O)N(C)CC1C(=O)O (configuration not stated)",
    "viability decrease (inhibition) (%)": 4.5
  },
  {
    "Compound": "NC[C@H]1O[C@H](O[C@H]2[C@H](O[C@@H]3O[C@H](CO)[C@@H](O)[C@H]3O)C(O)[C@H](N)C[C@@H]2N)[C@H](N)[C@@H](O)[C@@H]1O (some centres not stated)",
    "viability decrease (inhibition) (%)": 0.4
  },
  {
    "Compound": "CCCCCCCCCCCCSCCOCCO",
    "viability decrease (inhibition) (%)": 122
  },
  {
    "Compound": "NC(=O)CC[C@@H](N)C(=O)O",
    "viability decrease (inhibition) (%)": 11.4
  },
  {
    "Compound": "OC(CCN1CCCCC1)(c1ccccc1)C1CCCCC1 (configuration not stated)",
    "viability decrease (inhibition) (%)": 67.1
  },
  {
    "Compound": "CCCNCC(O)COc1ccccc1C(=O)CCc1ccccc1 (configuration not stated)",
    "viability decrease (inhibition) (%)": 41
  },
  {
    "Compound": "COc1cc(NC(C)CCCN)c2ncccc2c1 (configuration not stated)",
    "viability decrease (inhibition) (%)": 71.5
  },
  {
    "Compound": "CN(C)CCN1CCN(c2cccc(Cl)c2)C1=O",
    "viability decrease (inhibition) (%)": 7.4
  },
  {
    "Compound": "CC(=O)N1CCN(c2ccc(O)cc2)CC1",
    "viability decrease (inhibition) (%)": 101
  },
  {
    "Compound": "CCCCN=C(N)N=C(N)N",
    "viability decrease (inhibition) (%)": 54.5
  },
  {
    "Compound": "Cc1ccc(C(C)OC(=O)C2(C)CCC(C(=O)O)C2(C)C)cc1 (configuration not stated)",
    "viability decrease (inhibition) (%)": -11.8
  },
  {
    "Compound": "Cc1[nH]cnc1C[C@H]1CCc2c(C)c3ccccc3n2C1=O",
    "viability decrease (inhibition) (%)": 69.2
  },
  {
    "Compound": "CCC(CN)=C(c1ccccc1)c1ccccc1",
    "viability decrease (inhibition) (%)": 92
  },
  {
    "Compound": "Cc1cc(CC(=O)O)c(C)n1-c1ccc(Cl)cc1",
    "viability decrease (inhibition) (%)": 11.7
  },
  {
    "Compound": "O=C(c1ccccc1)C(O)c1ccccc1 (configuration not stated)",
    "viability decrease (inhibition) (%)": 9.2
  },
  {
    "Compound": "CCC(C(=O)O)c1ccc(N2Cc3ccccc3C2=O)cc1 (configuration not stated)",
    "viability decrease (inhibition) (%)": -8.7
  },
  {
    "Compound": "CCCc1ccc(OCC(=O)N2CCN(C(=O)COc3ccc(CCC)cc3OC)CC2)c(OC)c1",
    "viability decrease (inhibition) (%)": 97.2
  },
  {
    "Compound": "Cc1ccc(CCn2c3c(c4cc(Cl)ccc42)CN(C)CC3)cn1",
    "viability decrease (inhibition) (%)": 81.6
  },
  {
    "Compound": "CC1(C)S[C@@H]2[C@H](NC(=O)C(C(=O)Oc3ccc4c(c3)CCC4)c3ccccc3)C(=O)N2[C@H]1C(=O)O (some centres not stated)",
    "viability decrease (inhibition) (%)": 86
  },
  {
    "Compound": "CC1=NS(=O)(=O)c2cc(Cl)ccc2N1",
    "viability decrease (inhibition) (%)": 8.5
  },
  {
    "Compound": "CC(=O)CC/C=C(\\C)CC/C=C(\\C)CC/C=C(\\C)CCC=C(C)C",
    "viability decrease (inhibition) (%)": 34.2
  },
  {
    "Compound": "CCN(CC)CCNC(=O)c1ccc(N)cc1",
    "viability decrease (inhibition) (%)": -11.5
  },
  {
    "Compound": "COc1ccccc1OC(=O)Oc1ccccc1OC",
    "viability decrease (inhibition) (%)": 31.6
  },
  {
    "Compound": "Cc1ccccc1N=Nc1ccc(N=Nc2c(O)ccc3ccccc23)c(C)c1",
    "viability decrease (inhibition) (%)": 17.9
  },
  {
    "Compound": "Cc1cc(=O)oc2cc(O[C@@H]3SC[C@@H](O)[C@H](O)[C@H]3O)ccc12",
    "viability decrease (inhibition) (%)": -15.9
  },
  {
    "Compound": "CCC1(c2cnc[nH]2)Cc2ccccc2C1",
    "viability decrease (inhibition) (%)": 19.3
  },
  {
    "Compound": "CCCCC[C@H](O)C=C[C@H]1[C@H](O)CC(=O)[C@H]1CC=CCCCC(=O)O",
    "viability decrease (inhibition) (%)": 25.3
  },
  {
    "Compound": "O=C1Nc2ccccc2C1(c1ccc(O)cc1)c1ccc(O)cc1",
    "viability decrease (inhibition) (%)": 38.2
  },
  {
    "Compound": "O=C1C(CCS(=O)c2ccccc2)C(=O)N(c2ccccc2)N1c1ccccc1 (configuration not stated)",
    "viability decrease (inhibition) (%)": 15.3
  },
  {
    "Compound": "COc1ccccc1N1CCN(CC(O)COc2cc(OC)c(OC)c(OC)c2)CC1 (configuration not stated)",
    "viability decrease (inhibition) (%)": -2.1
  },
  {
    "Compound": "CC(O)COc1ccccc1 (configuration not stated)",
    "viability decrease (inhibition) (%)": -146
  },
  {
    "Compound": "Cc1onc(-c2ccccc2Cl)c1C(=O)Cl",
    "viability decrease (inhibition) (%)": 26.4
  },
  {
    "Compound": "C[C@H](N)C(=O)N[C@@H](C)C(=O)NC1[C@H]2CN(c3nc4c(cc3F)c(=O)c(C(=O)O)cn4-c3ccc(F)cc3F)C[C@@H]12 (some centres not stated)",
    "viability decrease (inhibition) (%)": 2.9
  },
  {
    "Compound": "CS(=O)(=O)OCCCCOS(C)(=O)=O",
    "viability decrease (inhibition) (%)": 31.8
  }
]

// data source = PubChem BioAssay
